Biological target: HIF-2α (Homo sapiens)
Sequence (Q99814 whole entry): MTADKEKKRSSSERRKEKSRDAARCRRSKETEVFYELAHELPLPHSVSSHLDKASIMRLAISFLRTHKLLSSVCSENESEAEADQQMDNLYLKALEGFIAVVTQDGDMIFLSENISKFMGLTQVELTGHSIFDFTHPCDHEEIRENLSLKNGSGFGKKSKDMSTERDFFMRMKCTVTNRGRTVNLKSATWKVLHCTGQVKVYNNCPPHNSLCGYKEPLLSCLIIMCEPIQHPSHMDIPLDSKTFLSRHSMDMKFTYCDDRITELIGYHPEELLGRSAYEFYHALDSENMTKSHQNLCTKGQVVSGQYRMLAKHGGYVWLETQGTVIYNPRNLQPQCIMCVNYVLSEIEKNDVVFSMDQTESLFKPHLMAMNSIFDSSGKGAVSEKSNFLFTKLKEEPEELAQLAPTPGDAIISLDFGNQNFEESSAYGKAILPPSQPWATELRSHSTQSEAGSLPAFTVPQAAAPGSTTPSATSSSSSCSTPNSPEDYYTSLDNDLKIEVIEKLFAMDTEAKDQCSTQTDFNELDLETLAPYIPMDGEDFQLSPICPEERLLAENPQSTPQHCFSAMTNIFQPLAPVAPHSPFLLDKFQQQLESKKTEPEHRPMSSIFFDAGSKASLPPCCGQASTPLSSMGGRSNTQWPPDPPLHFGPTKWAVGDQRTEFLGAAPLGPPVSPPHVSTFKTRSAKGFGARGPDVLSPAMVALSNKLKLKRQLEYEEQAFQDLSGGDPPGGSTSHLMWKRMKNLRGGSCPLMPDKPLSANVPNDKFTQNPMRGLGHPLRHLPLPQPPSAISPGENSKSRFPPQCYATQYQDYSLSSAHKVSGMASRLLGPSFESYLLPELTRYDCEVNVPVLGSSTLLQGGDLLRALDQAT
Assay: HIF-2α Luciferase Reporter Assay (serum free) in HIF-Luc-786-0 cells
Format: cell-based
Details: Opti-MEM, 786-0 reporter cells, 20 hours incubation
pIC50: −log10 of the molar value.
Value kind: pIC50

# example entries with known answers
O[C@H]1c2c(C(F)(F)F)nn(-c3ccc(Cl)c(Cl)c3)c2CC1(F)F | > 7.00
O[C@H]1c2c(C(F)(F)F)nn(CCCOC(F)(F)F)c2C[C@H]1F | 6.00 to 7.00
O[C@H]1c2c(C(F)(F)F)nn(C[C@H](F)C3CC3)c2CCC1(F)F (single isomer, unassigned) [26/27 DIAST-2] | 6.00 to 7.00
CC(CCn1nc(C#N)c2c1CCC(F)(F)[C@H]2O)C(F)(F)F (stereo partly drawn) | 6.00 to 7.00
O=S1(=O)CC(Cn2nc(C(F)(F)F)c3c2C[C@@H](F)[C@H]3O)C1 | 6.00 to 7.00

Lookup: What value of pIC50 has been recorded for this entry: `O[C@H]1c2c(C(F)(F)F)nn([C@H]3C[C@H](COC(F)F)C3)c2CCC1(F)F`
Found: 6.00 to 7.00
